Tested on: Saccharomyces cerevisiae
assay.text: protein stability index of tFT-peptide fusion (C-terminal peptide) (PSI (0-1 scale)); higher = more stable (slower turnover)
experimental.conditions: genetic background: das1 deletion; temperature: 30 C
observed.property: protein stability index
Answer with a number only.

sequence.string	protein stability index
SNENARNNNPYL [FLC2 C-terminal 12 aa]	0.691
EKWKINKKETVE [MOD5 C-terminal 12 aa]	0.697
EHCPGVNEDDHK [CMG1 C-terminal 12 aa]	0.703

For DFPHEAVVREML [TVP18 C-terminal 12 aa] , what is its reported protein stability index?
0.717

For KESPANDQASNE [MLP2 C-terminal 12 aa] , what is its reported protein stability index?
0.688

For KDDTPEDNLEDK [VBA5 C-terminal 12 aa] , what is its reported protein stability index?
0.697

For KQNSSITQKNSS [EPL1 C-terminal 12 aa] , what is its reported protein stability index?
0.711

For IKKGTPNNIAFL [YJL197C-A C-terminal 12 aa] , what is its reported protein stability index?
0.703

For KETFIQVWEKQE [SAD1 C-terminal 12 aa] , what is its reported protein stability index?
0.663

For GELSVDEKKKIY [ERV29 C-terminal 12 aa] , what is its reported protein stability index?
0.693

For KQKAFIQPKLVF [UTP4 C-terminal 12 aa] , what is its reported protein stability index?
0.691

For IQAKLKISVHDI [BEM1 C-terminal 12 aa] , what is its reported protein stability index?
0.674
